Target: PIK3CA (human) (UniProt P42336)
Sequence (P42336 whole entry, looked up): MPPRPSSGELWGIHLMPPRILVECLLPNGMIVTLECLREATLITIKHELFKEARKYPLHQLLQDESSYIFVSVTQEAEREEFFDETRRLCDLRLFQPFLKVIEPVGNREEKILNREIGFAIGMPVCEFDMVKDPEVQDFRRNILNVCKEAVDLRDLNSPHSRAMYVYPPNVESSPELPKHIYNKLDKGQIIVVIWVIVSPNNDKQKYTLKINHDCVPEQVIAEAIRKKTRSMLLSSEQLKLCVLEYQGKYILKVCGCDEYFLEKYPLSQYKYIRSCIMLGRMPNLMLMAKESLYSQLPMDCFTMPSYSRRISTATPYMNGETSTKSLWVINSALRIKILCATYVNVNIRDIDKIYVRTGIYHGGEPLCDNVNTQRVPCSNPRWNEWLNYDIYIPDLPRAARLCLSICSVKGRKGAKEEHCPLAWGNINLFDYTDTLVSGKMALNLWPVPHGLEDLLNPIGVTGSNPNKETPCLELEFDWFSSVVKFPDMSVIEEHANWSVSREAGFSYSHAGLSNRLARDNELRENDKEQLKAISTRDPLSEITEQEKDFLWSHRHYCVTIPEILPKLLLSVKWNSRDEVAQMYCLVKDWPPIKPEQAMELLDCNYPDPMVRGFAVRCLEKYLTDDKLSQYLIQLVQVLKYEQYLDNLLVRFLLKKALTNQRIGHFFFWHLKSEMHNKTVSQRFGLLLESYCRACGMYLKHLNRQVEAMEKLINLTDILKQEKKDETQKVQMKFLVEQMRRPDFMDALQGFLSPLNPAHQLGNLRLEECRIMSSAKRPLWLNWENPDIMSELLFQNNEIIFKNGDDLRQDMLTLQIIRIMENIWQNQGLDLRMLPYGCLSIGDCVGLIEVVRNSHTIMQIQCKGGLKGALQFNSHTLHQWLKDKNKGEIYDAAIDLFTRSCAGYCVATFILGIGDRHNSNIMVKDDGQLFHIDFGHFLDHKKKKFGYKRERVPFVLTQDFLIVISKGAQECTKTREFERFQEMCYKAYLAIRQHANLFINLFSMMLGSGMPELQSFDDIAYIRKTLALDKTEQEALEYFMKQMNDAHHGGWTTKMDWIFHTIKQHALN
pIC50: −log10 of the molar value.
Respond with Y for pIC50 values of 6 and above, N for values below.

INSERT INTO measurements (chem_smiles, answer_label) VALUES
  ('CC(C)(OCCN1CCCC1)c1cc2nc(-c3c[nH]c4ccccc34)nc(N3CCOCC3)c2s1', 'Y');

Is it the case that Cn1c(CN2CCC(C(C)(C)O)CC2)nc2c(N3CCOCC3)nc(-n3c(C#N)cc4ccccc43)nc21 has pIC50 reaching or exceeding 6?
N

Again, but for Cc1cc2cc(F)ccc2n1-c1nc(N2CCOCC2)c2sc(CN3CCC(N(C)C)CC3)cc2n1
N

Again, but for Cn1c(CN2CCC(N3CCOCC3)CC2)nc2c(N3CCOCC3)nc(-c3c[nH]c4ccccc34)nc21
N

Again, but for c1ccc2c(-c3nc(N4CCOCC4)c4nc(CN5CC(N6CCOCC6)C5)sc4n3)c[nH]c2c1
Y

---

Target: PIK3CA (human) (UniProt P42336)
Assay: Assessment of PIK3CA Kinase Activity
reported.property: pIC50
One number for each entry, as −log10 of the molar value.

Below are worked cases with known answers.
INSERT INTO assay_data (chem_smiles, value) VALUES
  ('CN(C)C1CCN(Cc2cc3nc(N4CCc5ccccc54)nc(N4CCOCC4)c3s2)CC1', 6.15),
  ('CN(C)C1CCN(Cc2cc3nc(-c4c[nH]c5ccc(F)cc45)nc(N4CCOCC4)c3s2)CC1', 5.88);

Please examine the following record next.
For the molecule shown here, CN(C)[C@@H]1CCN(Cc2nc3c(N4CCOCC4)nc(-c4c[nH]c5ccccc45)nc3n2C)C[C@@H]1F , give the reported pIC50.
6.14
